In this section we review reported Percentage of all products values for a set of molecules.
Test: In vitro disulfide cleavage and immolation by incubation with cysteine or glutathione (LC/MS)
Type: physicochemical
Conditions: 30 μM cysteine, pH 7.0, 37° C., 24 h
Give just the numeric value; % need not be written.

Kindly indicate its recorded Percentage of all products. Item: C=C1CC2C=Nc3cc(OCCCCCOc4cc5c(cc4OC)C(=O)N4CC(=C)CC4C(O)N5C(=O)OCC(C)S)c(OC)cc3C(=O)N2C1 (stereo not drawn)
0.5

Kindly indicate its recorded Percentage of all products. Item: `C=C1C[C@H]2C=Nc3cc(OCCCCCOc4cc5c(cc4OC)C(=O)N4CC(=C)C[C@H]4[C@H](O)N5C(=O)OCC4(S)CC4)c(OC)cc3C(=O)N2C1`
11.6

# next molecule below
Kindly indicate its recorded Percentage of all products. Item: C=C1C[C@H]2C=Nc3cc(OCCCCCOc4cc5c(cc4OC)C(=O)N4CC(=C)C[C@H]4C(O)N5C(=O)OCC4(SSc5ccc([N+](=O)[O-])cn5)CC4)c(OC)cc3C(=O)N2C1 (stereo partly drawn)
12.0

Reference for the values: patent US10729738B2
